Overview of reported zone of inhibition at 500 µg/mL across a group of compounds:
- Test system: S. typhi ATCC 14028
- procedure.text: Agar well diffusion, inhibition zone
- Type: cell-based
- measurement.setup: Salmonella enterica, read-out: Mean diameter of inhibition zone (mean ± SEM) S. typhi ATCC 14028

compound	zone of inhibition at 500 µg/mL / mm
Cc1c(Nc2nc3c(s2)sc(=S)n3-c2ccccc2)c(=O)n(-c2ccccc2)n1C [Compound 5a]	23
Cc1c(Nc2nc3c(s2)sc(=S)n3C)c(=O)n(-c2ccccc2)n1C [Compound 5c]	17
CCOC(=O)c1c(N)sc2sc(Nc3c(C)n(C)n(-c4ccccc4)c3=O)nc12 [Compound 3b]	23
Cc1c(Nc2nc3c(C#N)c(N)sc3s2)c(=O)n(-c2ccccc2)n1C [Compound 3a]	17
Cc1c(Nc2nc3c(C(N)=S)c(N)sc3s2)c(=O)n(-c2ccccc2)n1C [Compound 3d]	18
[H]/N=C(/N)N[C@H]1[C@H](O)[C@@H](O)[C@H](O[C@@H]2O[C@@H](C)[C@](O)(C=O)[C@H]2O[C@@H]2O[C@@H](CO)[C@H](O)[C@@H](O)[C@@H]2NC)[C@@H](N/C(N)=N\[H])[C@@H]1O [Streptomycin, reference compound]	23

---

Observed MIC, system E. faecalis.

compound	MIC
Cc1c(Nc2nc3c(s2)sc(=S)n3C)c(=O)n(-c2ccccc2)n1C [Compound 5c]	18.9 µM
Cc1c(Nc2nc3c(C(N)=S)c(N)sc3s2)c(=O)n(-c2ccccc2)n1C [Compound 3d]	75.5 µM
CCOC(=O)c1c(N)sc2sc(Nc3c(C)n(C)n(-c4ccccc4)c3=O)nc12 [Compound 3b]	67.4 µM
CCn1c(=S)sc2sc(Nc3c(C)n(C)n(-c4ccccc4)c3=O)nc21 [Compound 5b]	15.2 µM
[H]/N=C(/N)N[C@H]1[C@H](O)[C@@H](O)[C@H](O[C@@H]2O[C@@H](C)[C@](O)(C=O)[C@H]2O[C@@H]2O[C@@H](CO)[C@H](O)[C@@H](O)[C@@H]2NC)[C@@H](N/C(N)=N\[H])[C@@H]1O [Streptomycin, reference compound]	19.5 µM
Cc1c(Nc2nc3c(s2)sc(=S)n3-c2ccccc2)c(=O)n(-c2ccccc2)n1C [Compound 5a]	183 µM
Cc1c(Nc2nc3c(C#N)c(N)sc3s2)c(=O)n(-c2ccccc2)n1C [Compound 3a]	185 µM

---

Each entry below carries its reported melting point.
result.type: melting point

>>> print(df.to_string())
                      smiles_representation            val
0  Cc1c(Nc2nc3c(s2)sc(=S)n3C)c(=O)n(-c2ccccc2)n1C  189 to 191 °C
1  CCn1c(=S)sc2sc(Nc3c(C)n(C)n(-c4ccccc4)c3=O)nc21  183 to 185 °C
2  Cc1c(Nc2nc3c(s2)sc(=S)n3-c2ccc(Cl)cc2)c(=O)n(-c2ccccc2)n1C  211 to 213 °C
3  Cc1c(Nc2nc3c(C(N)=S)c(N)sc3s2)c(=O)n(-c2ccccc2)n1C  297 to 299 °C
4  CCOC(=O)c1c(N)sc2sc(Nc3c(C)n(C)n(-c4ccccc4)c3=O)nc12  285 to 287 °C
5  Cc1c(Nc2nc3c(C#N)c(N)sc3s2)c(=O)n(-c2ccccc2)n1C       > 300 °C
6  Cc1c(Nc2nc3c(s2)sc(=S)n3-c2ccccc2)c(=O)n(-c2ccccc2)n1C  201 to 203 °C

---

- Test system: E. coli RCMB 010052
- procedure.text: Agar well diffusion, inhibition zone
- Assay type: cell-based
- measurement.setup: Escherichia coli, RCMB010052, read-out: Mean diameter of inhibition zone (mean ± SEM) E. coli RCMB 010052
Let's look at some compounds and their measured zone of inhibition at 500 µg/mL.
result.type: zone of inhibition at 500 µg/mL (mm)

>>> print(df.to_string())
                      smiles_representation  quantity_unit  val
0  Cc1c(Nc2nc3c(C#N)c(N)sc3s2)c(=O)n(-c2ccccc2)n1C             mm   25
1  Cc1c(Nc2nc3c(C(N)=S)c(N)sc3s2)c(=O)n(-c2ccccc2)n1C             mm   22
2  Cc1c(Nc2nc3c(s2)sc(=S)n3-c2ccc(Cl)cc2)c(=O)n(-c2ccccc2)n1C             mm   15
3  CCOC(=O)c1c(N)sc2sc(Nc3c(C)n(C)n(-c4ccccc4)c3=O)nc12             mm   15
4  CCn1c(=S)sc2sc(Nc3c(C)n(C)n(-c4ccccc4)c3=O)nc21             mm   10
5  Cc1c(Nc2nc3c(s2)sc(=S)n3C)c(=O)n(-c2ccccc2)n1C             mm   25

---

- Tested on: A. fumigatus RCMB 02568
- procedure.text: Agar well diffusion, inhibition zone
- Type: cell-based
- measurement.setup: Aspergillus fumigatus, RCMB02568, read-out: Mean diameter of inhibition zone (mean ± SEM) A. fumigatus RCMB 02568
result.type: zone of inhibition at 500 µg/mL (mm)

>>> print(df.to_string())
                                   compound  val
0  Cc1c(Nc2nc3c(s2)sc(=S)n3C)c(=O)n(-c2ccccc2)n1C [Compound 5c]   26
1  Cc1c(Nc2nc3c(s2)sc(=S)n3-c2ccccc2)c(=O)n(-c2ccccc2)n1C [Compound 5a]    9
2  Cc1c(Nc2nc3c(C#N)c(N)sc3s2)c(=O)n(-c2ccccc2)n1C [Compound 3a]   18
3  Cc1c(Nc2nc3c(C(N)=S)c(N)sc3s2)c(=O)n(-c2ccccc2)n1C [Compound 3d]   19
4  CCOC(=O)c1c(N)sc2sc(Nc3c(C)n(C)n(-c4ccccc4)c3=O)nc12 [Compound 3b]   21

---

- Tested on: S. aureus 25923
A collection of compounds and their measured log10 of MIC
result.type: log10 of MIC (log10 of the value in µM)

compound	tgt	result.type	val
Cc1c(Nc2nc3c(C#N)c(N)sc3s2)c(=O)n(-c2ccccc2)n1C	S. aureus 25923	log10 of MIC	1.23
Cc1c(Nc2nc3c(C(N)=S)c(N)sc3s2)c(=O)n(-c2ccccc2)n1C	S. aureus 25923	log10 of MIC	2.26
Cc1c(Nc2nc3c(s2)sc(=S)n3-c2ccccc2)c(=O)n(-c2ccccc2)n1C	S. aureus 25923	log10 of MIC	1.80
Cc1c(Nc2nc3c(s2)sc(=S)n3-c2ccc(Cl)cc2)c(=O)n(-c2ccccc2)n1C	S. aureus 25923	log10 of MIC	1.28
Cc1c(Nc2nc3c(s2)sc(=S)n3C)c(=O)n(-c2ccccc2)n1C	S. aureus 25923	log10 of MIC	1.84
CCn1c(=S)sc2sc(Nc3c(C)n(C)n(-c4ccccc4)c3=O)nc21	S. aureus 25923	log10 of MIC	2.13
CCOC(=O)c1c(N)sc2sc(Nc3c(C)n(C)n(-c4ccccc4)c3=O)nc12	S. aureus 25923	log10 of MIC	1.90
[H]/N=C(/N)N[C@H]1[C@H](O)[C@@H](O)[C@H](O[C@@H]2O[C@@H](C)[C@](O)(C=O)[C@H]2O[C@@H]2O[C@@H](CO)[C@H](O)[C@@H](O)[C@@H]2NC)[C@@H](N/C(N)=N\[H])[C@@H]1O [Streptomycin, reference compound]	S. aureus 25923	log10 of MIC	1.23

---

- Tested on: E. faecalis
- procedure.text: Agar well diffusion, inhibition zone
- Type: cell-based
- measurement.setup: Enterococcus faecalis, read-out: Mean diameter of inhibition zone (mean ± SEM) E. faecalis
result.type: zone of inhibition at 500 µg/mL (mm)

>>> df
                      smiles_representation                      result_type  val
0  Cc1c(Nc2nc3c(C#N)c(N)sc3s2)c(=O)n(-c2ccccc2)n1C  zone of inhibition at 500 µg/mL   13
1  Cc1c(Nc2nc3c(s2)sc(=S)n3C)c(=O)n(-c2ccccc2)n1C  zone of inhibition at 500 µg/mL   24
2  Cc1c(Nc2nc3c(s2)sc(=S)n3-c2ccccc2)c(=O)n(-c2ccccc2)n1C  zone of inhibition at 500 µg/mL   13
3  CCOC(=O)c1c(N)sc2sc(Nc3c(C)n(C)n(-c4ccccc4)c3=O)nc12  zone of inhibition at 500 µg/mL   20
4  CCn1c(=S)sc2sc(Nc3c(C)n(C)n(-c4ccccc4)c3=O)nc21  zone of inhibition at 500 µg/mL   27
5  Cc1c(Nc2nc3c(C(N)=S)c(N)sc3s2)c(=O)n(-c2ccccc2)n1C  zone of inhibition at 500 µg/mL   22

Values were extracted from paper PMC8694192.
